- System: Streptococcus sp.
- procedure.text: in vitro antibacterial evaluation, MIC by broth dilution
- Type: cell-based
- stated.conditions: broth dilution, inoculum 5×10^5 CFU/mL, 18 hours at 35° C.; strain GC 4564
- Source text: Methods for in vitro Antibacterial Evaluation (Table 1) […]

# compound, target.of.assay, MIC Streptococcus agalactiae (GC 4564)
data = [
    ("CSc1ccc(C2OCC3OC(OC4C(CO)OC(Oc5ccc(CC6NC(=O)C(C(C)c7ccccc7)NC(=O)CNC(=O)C(CO)NC(=O)C(C(O)C7CNC(=N)N7C7OC(CO)C(O)C(O)C7O)NC(=O)C(C(O)C7CNC(=N)N7)NC6=O)cc5)C(O)C4O)C(O)C(O)C3O2)cc1[N+](=O)[O-] (stereo not shown)", "Streptococcus sp.", "<0.12 µg/mL"),
    ("CC(c1ccccc1)C1NC(=O)CNC(=O)C(CO)NC(=O)C(C(O)C2CNC(=N)N2C2OC(CO)C(O)C(O)C2O)NC(=O)C(C(O)C2CNC(=N)N2)NC(=O)C(Cc2ccc(OC3OC(CO)C(OC4OC5COC(c6ccc(-c7ccc(Cl)cc7)cc6)OC5C(O)C4O)C(O)C3O)cc2)NC1=O (stereo not shown)", "Streptococcus sp.", "<0.06 µg/mL"),
    ("CC(c1ccccc1)C1NC(=O)CNC(=O)C(CO)NC(=O)C(C(O)C2CNC(=N)N2C2OC(CO)C(O)C(O)C2O)NC(=O)C(C(O)C2CNC(=N)N2)NC(=O)C(Cc2ccc(OC3OC(CO)C(OC4OC5COC(c6cccc(OCc7ccc([N+](=O)[O-])cc7)c6)OC5C(O)C4O)C(O)C3O)cc2)NC1=O (stereo not shown)", "Streptococcus sp.", "32 µg/mL"),
    ("CC(c1ccccc1)C1NC(=O)CNC(=O)C(CO)NC(=O)C(C(O)C2CNC(=N)N2C2OC(CO)C(O)C(O)C2O)NC(=O)C(C(O)C2CNC(=N)N2)NC(=O)C(Cc2ccc(OC3OC(CO)C(OC4OC5COC(c6cccc(Oc7ccccc7)c6)OC5C(O)C4O)C(O)C3O)cc2)NC1=O (stereo not shown)", "Streptococcus sp.", "<0.06 µg/mL"),
]

###

- Tested on: Enterococcus sp.
- procedure.text: in vitro antibacterial evaluation, MIC by broth dilution
- Assay type: cell-based
- stated.conditions: broth dilution, inoculum 5×10^5 CFU/mL, 18 hours at 35° C.; strain GC 2691

# molecule, target.of.assay, relation.sign, MIC Enterococcus faecalis (GC 2691) [µg/mL]
data = [
    ("CC(c1ccccc1)C1NC(=O)CNC(=O)C(CO)NC(=O)C(C(O)C2CNC(=N)N2C2OC(CO)C(O)C(O)C2O)NC(=O)C(C(O)C2CNC(=N)N2)NC(=O)C(Cc2ccc(OC3OC(CO)C(OC4OC5COC6(CC(C)(C)CC(C)(C)C6)OC5C(O)C4O)C(O)C3O)cc2)NC1=O (stereo not shown)", "Enterococcus sp.", "=", 2),
    ("COc1ccc(COCC2OC(OC3C(CO)OC(Oc4ccc(CC5NC(=O)C(C(C)c6ccccc6)NC(=O)CNC(=O)C(CO)NC(=O)C(C(O)C6CNC(=N)N6C6OC(CO)C(O)C(O)C6O)NC(=O)C(C(O)C6CNC(=N)N6)NC5=O)cc4)C(O)C3O)C(O)C(O)C2O)cc1 (stereo not shown)", "Enterococcus sp.", "=", 32),
    ("CC(c1ccccc1)C1NC(=O)CNC(=O)C(CO)NC(=O)C(CC2CNC(=N)N2C2OC(CO)C(O)C(O)C2O)NC(=O)C(CC2CNC(=N)N2)NC(=O)C(Cc2ccc(OC3OC(CO)C(OC4OC(CO)C(OCc5ccc(OCc6ccccc6)cc5)C(O)C4O)C(O)C3O)cc2)NC1=O (stereo not shown) [Example 246a]", "Enterococcus sp.", "=", 8),
    ("CC(c1ccccc1)C1NC(=O)CNC(=O)C(CO)NC(=O)C(C(O)C2CNC(=N)N2C2OC(CO)C(O)C(O)C2O)NC(=O)C(C(O)C2CNC(=N)N2)NC(=O)C(Cc2ccc(OC3OC(CO)C(OC4OC(CO)C(O)C(OCc5ccc(OCc6ccccc6)cc5)C4O)C(O)C3O)cc2)NC1=O (stereo not shown) [Example 231c]", "Enterococcus sp.", "=", 8),
    ("CCOc1cc(C2OCC3OC(OC4C(CO)OC(Oc5ccc(CC6NC(=O)C(C(C)c7ccccc7)NC(=O)CNC(=O)C(CO)NC(=O)C(C(O)C7CNC(=N)N7C7OC(CO)C(O)C(O)C7O)NC(=O)C(C(O)C7CNC(=N)N7)NC6=O)cc5)C(O)C4O)C(O)C(O)C3O2)ccc1[N+](=O)[O-] (stereo not shown)", "Enterococcus sp.", "=", 32),
    ("CC(c1ccccc1)C1NC(=O)CNC(=O)C(CO)NC(=O)C(C(O)C2CNC(=N)N2C2OC(CO)C(O)C(O)C2O)NC(=O)C(C(O)C2CNC(=N)N2)NC(=O)C(Cc2ccc(OC3OC(CO)C(OC4OC5COC(c6ccc(C=Cc7ccccc7)cc6)OC5C(O)C4O)C(O)C3O)cc2)NC1=O (stereo not shown)", "Enterococcus sp.", "=", 4),
    ("CC(C)=CCCC(C)=CCCC(C)=CCOc1cccc(C2OCC3OC(OC4C(CO)OC(Oc5ccc(CC6NC(=O)C(C(C)c7ccccc7)NC(=O)CNC(=O)C(CO)NC(=O)C(C(O)C7CNC(=N)N7C7OC(CO)C(O)C(O)C7O)NC(=O)C(C(O)C7CNC(=N)N7)NC6=O)cc5)C(O)C4O)C(O)C(O)C3O2)c1 (stereo not shown)", "Enterococcus sp.", ">", 64),
]
